# System: CYP1A1 mRNA in Hepe1c1c7 cells
# assay details: Test B: in vitro effect on CYP1A1 activation (CYP1A1 mRNA by q-RT PCR)
# Assay type: cell-based
# settings: 5 μM in 0.5% DMSO, ratio treated to untreated, normalized to GAPDH mRNA
# Method: The ability of a compound of the invention to effect CYP1A1 activation may be determined using pharmacological models which are well known to the art, or using Test B described below. General Procedures of the In Vitro Effect on CYP1A1 Activation Hepe1c1c7 cells were cultured under standard conditions and seeded in 6-well plate. […] The relative amount of CYP1A1 mRNA were quantified via q-RT PCR and normalized to the amount of GAPDH mRNA from the same sample. […]
Label Y when Induction of CYP1A1 mRNA is at or above 2; otherwise label N.

**Q:** # check: Induction of CYP1A1 mRNA of COC1=CC(=O)O[C@@H](CCc2ccc3c(c2)OCO3)C1 [drawing 26] is greater than or equal to 2
**A:** N

**Q:** # check: Induction of CYP1A1 mRNA of COC1=C(C)C(=O)OC(CCc2ccc3c(c2)OCO3)C1 (stereo not drawn) is greater than or equal to 2
**A:** N

**Q:** # check: Induction of CYP1A1 mRNA of O=C1C=CCC(CCc2ccc3c(c2)OCO3)O1 (stereo not drawn) is greater than or equal to 2
**A:** Y

* * *

# Test system: CYP1A1 mRNA in Hepe1c1c7 cells
# assay details: Test B: in vitro effect on CYP1A1 activation (CYP1A1 mRNA by q-RT PCR)
# Type: cell-based
# settings: 5 μM in 0.5% DMSO, ratio treated to untreated, normalized to GAPDH mRNA
Each entry below carries its reported Induction of CYP1A1 mRNA.
// no unit, no text: just the number

Some compounds with known Induction of CYP1A1 mRNA results, for comparison:
compound: COC1=CC(=O)OC(/C=C/c2ccc3c(c2)OCCO3)C1 (stereo not drawn) [drawing 40]
Induction of CYP1A1 mRNA: 1.15

compound: COC1=CC(=O)OC(/C=C/c2ccc3c(c2)OCO3)C1 (stereo not drawn)
Induction of CYP1A1 mRNA: 0.26

compound: COC1=CC(=O)OC(C)(CCc2ccc3c(c2)OCO3)C1 (stereo not drawn)
Induction of CYP1A1 mRNA: 2.49

compound: COC1=CC(=O)CC(CCc2ccc3c(c2)OCO3)C1 (stereo not drawn)
Induction of CYP1A1 mRNA: 5.58

In plain terms, COC1=CC(=O)OC(CCc2ccc3c(c2)CCC3)C1 (stereo not drawn) has a documented Induction of CYP1A1 mRNA of 0.79

In plain terms, COC1=CC(=O)OC(CCc2ccc3c(c2)OCO3)C1C (stereo not drawn) has a documented Induction of CYP1A1 mRNA of 2.16

In plain terms, O=C1C=C(O)CC(CCc2ccc3c(c2)OCO3)O1 (stereo not drawn) has a documented Induction of CYP1A1 mRNA of 1.20

In plain terms, COC1=CC(=O)OC(CCc2ccc3c(c2)OCCO3)C1 (stereo not drawn) has a documented Induction of CYP1A1 mRNA of 3.73

In plain terms, COC1=CC(=O)OC(CCc2ccc(OC)c(O)c2)C1 (stereo not drawn) has a documented Induction of CYP1A1 mRNA of 5.61

Values were extracted from patent US10584108B2.
